# experimental.system: CDK9 (Homo sapiens, UniProt P50750)
# Construct: endogenous in cells; host or cells: MDA-MB-231
# Sequence (P50750 whole entry): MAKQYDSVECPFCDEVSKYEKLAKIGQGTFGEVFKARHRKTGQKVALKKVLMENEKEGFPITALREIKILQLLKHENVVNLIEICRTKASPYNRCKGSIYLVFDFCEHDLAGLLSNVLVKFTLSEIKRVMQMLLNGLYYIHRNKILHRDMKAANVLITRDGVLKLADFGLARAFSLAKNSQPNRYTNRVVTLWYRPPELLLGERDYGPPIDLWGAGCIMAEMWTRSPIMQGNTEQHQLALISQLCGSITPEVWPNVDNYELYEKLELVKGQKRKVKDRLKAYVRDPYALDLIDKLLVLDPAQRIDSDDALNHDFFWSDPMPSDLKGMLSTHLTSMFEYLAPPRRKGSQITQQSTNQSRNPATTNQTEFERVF
# assay.info: CDK protein degradation activity (Western blotting), CDK9
# Assay type: cell-based
# measurement.setup: MDA-MB-231 cells, 1 μM, 16 hours, Western blot
// values below are reported Enzyme degradation CDK9 (% remaining) @ 1 μM
test.readout: Enzyme degradation CDK9 (% remaining) @ 1 μM

{"columns": ["molecule", "reported"],
 "data": [
  ["O=C1CCC(c2ccc(OCC(=O)N3CCC(CCN4CCN(c5ccc(Nc6ncnc7c6ncn7[C@H]6C[C@@H](NC(=O)c7c(Cl)cccc7Cl)C6)cc5)CC4)CC3)cc2)C(=O)N1 (stereo partly drawn)", "10/10/10%"],
  ["O=C1CCC(N2C(=O)c3ccc(N4CCC(CN5CCC(CCNc6ncnc7c6ncn7[C@H]6C[C@@H](NC(=O)c7c(Cl)cccc7Cl)C6)CC5)CC4)cc3C2=O)C(=O)N1 (stereo partly drawn)", "20/20/20%"],
  ["O=C1CC[C@H](N2C(=O)c3cc(F)c(N4CCC(C(=O)N5CCC(CCCN6CCN(c7ccc(Nc8ncnc9c8ncn9[C@H]8C[C@@H](NC(=O)Cc9ccccc9)C8)cc7)CC6)CC5)CC4)cc3C2=O)C(=O)N1", "0/0/0%"],
  ["O=C1CC[C@@H](c2ccc(OCC(=O)N3CCC(CN4CCN(c5ccc(Nc6ncnc7c6ncn7C6CC(NC(=O)c7cccc(C(F)(F)F)n7)C6)cc5)CC4)CC3)cc2)C(=O)N1 (stereo partly drawn)", "10/10/10%"],
  ["Cc1cccc(C(=O)NC2CC(n3cnc4c(Nc5ccc(N6CCN(CC7CCN(C(=O)C8CCN(c9cc%10c(cc9F)C(=O)N([C@H]9CCC(=O)NC9=O)C%10=O)CC8)CC7)CC6)cc5C)ncnc43)C2)n1 (stereo partly drawn)", "30/30/30%"],
  ["O=C1CCN(c2coc3cc(C(=O)N4CCC5(CC4)CC(N4CCN(c6ccc(Nc7ncnc8c7ncn8[C@H]7C[C@@H](NC(=O)Cc8ccccc8)C7)cc6)CC4)C5)ccc23)C(=O)N1", "0/0/0%"]
]}

* * *

// values below are reported Enzyme degradation CDK9 (% remaining) @ 10 μM
# experimental.system: CDK9 (Homo sapiens, UniProt P50750)
# Construct: endogenous in cells; host or cells: MDA-MB-231
# assay.info: CDK protein degradation activity (Western blotting), CDK9
# Format: cell-based
# measurement.setup: MDA-MB-231 cells, 10 μM, 16 hours, Western blot
test.readout: Enzyme degradation CDK9 (% remaining) @ 10 μM

{"columns": ["compound", "experimental.system", "reported"],
 "data": [
  ["O=C1CCC(N2C(=O)c3cccc(NCC(=O)N4CCC(CN5CCN(c6ccc(Nc7ncnc8c7ncn8[C@H]7C[C@@H](NC(=O)Cc8ccccc8)C7)cc6)CC5)CC4)c3C2=O)C(=O)N1 (stereo partly drawn)", "CDK9 (Homo sapiens, UniProt P50750)", "0/0/0%"],
  ["O=C1CC[C@H](N2C(=O)c3ccc(N4CCC(C(=O)N5CCC6(CC5)CC(N5CCN(c7ccc(Nc8ncnc9c8ncn9C8CC(NC(=O)Cc9ccccc9)C8)cc7)CC5)C6)CC4)cc3C2=O)C(=O)N1 (stereo partly drawn)", "CDK9 (Homo sapiens, UniProt P50750)", "10/10/10%"],
  ["O=C1CC[C@H](N2C(=O)c3cc(F)c(N4CCC(C(=O)N5CCC(CN6CCN(c7ccc(Nc8ncnc9c8ncn9C8CC(NC(=O)c9cccc(Cl)n9)C8)cc7)CC6)CC5)CC4)cc3C2=O)C(=O)N1 (stereo partly drawn)", "CDK9 (Homo sapiens, UniProt P50750)", "0/0/0%"]
]}

The reported numbers originate from patent US20260125382A1.
